Measurement record for USP7 (Homo sapiens, UniProt Q93009); quantity recorded: IC50.

Solved cases below.
O=C(C1Cc2cc(Cl)cc(-c3ccnc4[nH]ccc34)c2O1)N1CCC2(CC1)CNC2 (centres unmarked)	1 to 10 µM
O=C(C1Cc2cc(Cl)cc(-c3ccnc4ccc(Cl)cc34)c2O1)N1CCNCC1 (centres unmarked)	10 to 30 µM
CC1(C(=O)N2CCNCC2)Cc2cc(Cl)cc(-c3ccnc4[nH]ccc34)c2O1 (centres unmarked)	1 to 10 µM
O=C([C@H]1Cc2cc(Cl)cc(-c3ccnc4[nH]ccc34)c2O1)N1CCC(CCO)CC1	10 to 30 µM

Next compound, IC50 to be filled in.
Test item O=C([C@H]1Cc2cc(Cl)cc(-c3ccnc4occc34)c2O1)N1CCNCC1 ; USP7 (Homo sapiens, UniProt Q93009); reported IC50 was 1 to 10 µM

###

- measured.target: USP7 (Homo sapiens, UniProt Q93009)
- Sequence (Q93009 whole entry): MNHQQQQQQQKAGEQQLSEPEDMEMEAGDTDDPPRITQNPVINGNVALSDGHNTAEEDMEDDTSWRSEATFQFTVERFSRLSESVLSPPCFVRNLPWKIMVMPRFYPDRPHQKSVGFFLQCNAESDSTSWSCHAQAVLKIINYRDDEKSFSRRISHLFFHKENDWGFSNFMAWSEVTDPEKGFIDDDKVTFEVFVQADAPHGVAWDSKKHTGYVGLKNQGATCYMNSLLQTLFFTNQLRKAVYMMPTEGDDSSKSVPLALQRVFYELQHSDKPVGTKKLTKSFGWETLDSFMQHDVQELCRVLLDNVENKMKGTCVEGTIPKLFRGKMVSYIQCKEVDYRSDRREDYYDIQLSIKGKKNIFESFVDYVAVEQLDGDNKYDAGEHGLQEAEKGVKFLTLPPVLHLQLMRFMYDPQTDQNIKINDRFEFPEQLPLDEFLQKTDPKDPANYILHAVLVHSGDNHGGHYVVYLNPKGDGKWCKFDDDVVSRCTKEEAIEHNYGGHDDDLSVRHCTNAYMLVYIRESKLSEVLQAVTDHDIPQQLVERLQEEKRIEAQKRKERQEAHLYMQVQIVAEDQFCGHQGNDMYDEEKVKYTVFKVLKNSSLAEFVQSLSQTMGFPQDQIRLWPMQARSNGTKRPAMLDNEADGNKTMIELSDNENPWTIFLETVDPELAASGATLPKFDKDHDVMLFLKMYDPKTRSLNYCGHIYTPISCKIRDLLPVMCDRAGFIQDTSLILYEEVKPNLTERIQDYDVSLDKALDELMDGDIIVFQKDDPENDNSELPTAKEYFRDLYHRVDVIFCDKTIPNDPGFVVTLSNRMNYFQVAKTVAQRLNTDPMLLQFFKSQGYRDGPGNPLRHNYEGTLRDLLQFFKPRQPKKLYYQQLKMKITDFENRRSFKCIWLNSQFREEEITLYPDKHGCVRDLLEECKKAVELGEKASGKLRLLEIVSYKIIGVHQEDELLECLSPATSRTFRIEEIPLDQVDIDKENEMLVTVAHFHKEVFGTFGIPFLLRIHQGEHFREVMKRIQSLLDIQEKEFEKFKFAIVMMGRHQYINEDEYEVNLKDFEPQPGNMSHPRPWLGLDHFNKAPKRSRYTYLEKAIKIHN
pIC50: −log10 of the molar value.
measurement.kind: pIC50

Solved cases below.
Nc1cc(-c2cc(Cl)cc3c2OC(C(=O)N2CCNCC2)C3)ccn1 (stereo not drawn)	5.00 to 6.00
Clc1cc2c(c(-c3ccnc4ccsc34)c1)O[C@@H](c1onc3c1CNCC3)C2	> 6.00
Clc1cc2c(c(-c3ccnc4ccsc34)c1)O[C@H](c1onc3c1CNCC3)C2	> 6.00

Value of measured pIC50 for the entry Clc1cc2c(c(-c3ccnc4cc(Cl)ccc34)c1)O[C@@H](c1[nH]nc3c1CNCC3)C2 : 5.00 to 6.00

Value of measured pIC50 for the entry Cc1cc(-c2cc(Cl)cc3c2O[C@@H](c2onc4c2CNCC4)C3)c2ccc(C#N)cc2n1 : 4.52 to 5.00

Value of measured pIC50 for the entry CC(C)CC(O)c1cc2nccc(-c3cc(Cl)cc4c3O[C@@H](c3onc5c3CNCC5)C4)c2s1 (stereo partly drawn) : > 6.00

Value of measured pIC50 for the entry O=C([C@H]1Cc2cc(Cl)cc(-c3ccnc4cc(CCO)sc34)c2O1)N1CCNCC1 : > 6.00

Value of measured pIC50 for the entry COc1ccc2c(-c3cc(Cl)cc4c3O[C@@H](c3onc5c3CNCC5)C4)ccnc2c1 : > 6.00

Value of measured pIC50 for the entry CC1(c2onc3c2CNCC3)Cc2cc(Cl)cc(-c3ccnc4cc(CO)sc34)c2O1 (stereo not drawn) : > 6.00

Value of measured pIC50 for the entry NS(=O)(=O)CCc1cc2nccc(-c3cc(Cl)cc4c3O[C@@H](C(=O)N3CCNCC3)C4)c2s1 : > 6.00

Value of measured pIC50 for the entry CN1CCc2noc([C@H]3Cc4cc(Cl)cc(-c5ccnc6cc(C#N)ccc56)c4O3)c2C1 : 5.00 to 6.00

Value of measured pIC50 for the entry N#Cc1cc2c(c(-c3ccnc4cc(CO)sc34)c1)OC(C(=O)N1CCNCC1)C2 (stereo in doubt) : 5.00 to 6.00

Value of measured pIC50 for the entry O=C(C1Cc2cc(Cl)cc(-c3ccnc4[nH]ccc34)c2O1)N1CCNCC1 (stereo not drawn) : > 6.00

Value of measured pIC50 for the entry CCC(O)c1cc2nccc(-c3cc(Cl)cc4c3O[C@@H](c3onc5c3CNCC5)C4)c2s1 (stereo partly drawn) [drawing 1570] : > 6.00

Value of measured pIC50 for the entry CN(C)S(=O)(=O)CCc1cc2nccc(-c3cc(Cl)cc4c3O[C@@H](C(=O)N3CCNCC3)C4)c2s1 : > 6.00

###

- measured.target: UniProt Q93009
- assay.text: USP7 inhibitory potency (Table 1)
- Type: biochemical
pIC50: −log10 of the molar value.
measurement.kind: pIC50

Solved cases below.
O=C(C1Cc2cc(Cl)cc(-c3ccnc4c(F)cccc34)c2O1)N1CCNCC1 (centres unmarked)	4.52 to 5.00
Cn1nc2c(c1[C@H]1Cc3cc(Cl)cc(-c4ccnc5ccsc45)c3O1)CNCC2	> 6.00

Value of measured pIC50 for the entry CCC(O)c1ccc2c(-c3cc(Cl)cc4c3O[C@@H](c3onc5c3CNCC5)C4)ccnc2c1 (some centres unmarked) : 5.00 to 6.00

Value of measured pIC50 for the entry C[C@H]1C[C@H](NC(=O)C2Cc3cc(Cl)cc(-c4ccnc5[nH]ccc45)c3O2)CCN1 (some centres unmarked) : 5.00 to 6.00

###

Measurement record for UniProt Q93009; quantity recorded: IC50.

Solved cases below.
O=C(C1Cc2cc(Cl)cc(-c3ccnc4[nH]c(Cc5cc6ccccc6cn5)cc34)c2O1)N1CCNCC1 (centres unmarked)	1 to 10 µM
COC(=O)NCc1cc2nccc(-c3cc(Cl)cc4c3O[C@@H](c3onc5c3CNCC5)C4)c2s1	< 1 µM
O=C([C@H]1Cc2cc(Cl)cc(-c3ccnc4cc(CO)sc34)c2O1)N1CCNCC1	< 1 µM
CCC(O)c1cc2nccc(-c3cc(Cl)cc4c3O[C@@H](c3ocnc3CNC)C4)c2s1 (some centres unmarked)	< 1 µM
C[C@@H]1CNCCN1C(=O)C1Cc2cc(Cl)cc(-c3ccnc4[nH]ccc34)c2O1 (some centres unmarked)	10 to 30 µM

Value of measured IC50 for the entry CCC(O)c1cc2ncnc(-c3cc(Cl)cc4c3O[C@@H](C(=O)N3CCNCC3)C4)c2s1 (some centres unmarked) : < 1 µM

Value of measured IC50 for the entry C[C@@H]1CCN(Cc2cc3nccc(-c4cc(Cl)cc5c4O[C@@H](C(=O)N4CCNCC4)C5)c3s2)C1=O : < 1 µM

Value of measured IC50 for the entry CN1CCN(Cc2cc3nccc(-c4cc(Cl)cc5c4O[C@@H](C(=O)N4CCNCC4)C5)c3s2)C1=O : < 1 µM

###

- measured.target: USP7 (Homo sapiens)
- assay.text: USP7 inhibitory potency (Table 1)
- Format: biochemical
pIC50: −log10 of the molar value.
measurement.kind: pIC50

Solved cases below.
CN[C@H]1CCCN(C(=O)[C@H]2Cc3cc(Cl)cc(-c4ccnc5cc(CO)sc45)c3O2)C1	> 6.00
C[C@H]1CNCCN1C(=O)C1Cc2cc(Cl)cc(-c3ccnc4[nH]ccc34)c2O1 (stereo partly drawn)	5.00 to 6.00

Next compound, pIC50 to be filled in.
Value of measured pIC50 for the entry CCC(O)C1Cc2nccc(-c3cc(Cl)cc4c3O[C@@H](C(=O)N3CCNCC3)C4)c2C1 (stereo partly drawn) : > 6.00

###

Measurement record for USP7 (Homo sapiens, UniProt Q93009); quantity recorded: IC50.

Solved cases below.
Cn1nc2c(c1[C@H]1Cc3cc(Cl)cc(-c4ccnc5cc(CO)sc45)c3O1)CNCC2	< 1000 nM
CCC(N)c1cc2nccc(-c3cc(Cl)cc4c3O[C@@H](c3onc5c3CNCC5)C4)c2s1 (stereo partly shown)	1000 to 10000 nM
Cc1cc2c(-c3cc(Cl)cc4c3O[C@@H](c3onc5c3CNCC5)C4)ccnc2cc1C#N	1000 to 10000 nM

Next compound, IC50 to be filled in.
Test item O=C(C1Cc2cc(Cl)cc(-c3ccnc4cc(C(F)(F)F)ccc34)c2O1)N1CCNCC1 (stereo not shown) ; USP7 (Homo sapiens, UniProt Q93009); reported IC50 was 1000 to 10000 nM

###

- measured.target: USP7 (Homo sapiens)
measurement.kind: IC50

Solved cases below.
CN(C)C(=O)C1Cc2nccc(-c3cc(Cl)cc4c3O[C@@H](c3onc5c3CNCC5)C4)c2C1 (stereo partly drawn)	1000 to 10000 nM
O=C(C1Cc2cc(Cl)c(Cl)c(-c3ccnc4[nH]ccc34)c2O1)N1CCNCC1 (stereo not drawn)	1000 to 10000 nM

Test item CCC(O)c1cc2nccc(-c3cc(Cl)cc4c3O[C@@H](c3onc5c3CNCC5)C4)c2o1 (stereo partly drawn) [drawing 1522] ; USP7 (Homo sapiens); reported IC50 was < 1000 nM
